target: panel of 255 wild-type kinases (Homo sapiens, UniProt P22694); assay: Kinase panel profiling at 1 µmol/L (MSA or IMAP), percentage inhibition; format: biochemical; details: kinase PKACβ; 1 µmol/L single concentration; read-out: %-inhibition at 1 µmol/L, PKACβ
# reported inhibition at 1 µM; entries follow
readout label: inhibition at 1 µM (%)

Cc1nc(NC(=O)N2CCC[C@H]2C(N)=O)sc1-c1ccnc(C(C)(C)C(F)(F)F)c1
-20
CCN1CCN(c2ccc(Nc3cc(N(C)C(=O)Nc4c(Cl)c(OC)cc(OC)c4Cl)ncn3)cc2)CC1
-17
Cn1cc(-c2cc3c(N4CCN(c5ncc([C@@](C)(N)c6ccc(F)cc6)cn5)CC4)ncnn3c2)cn1
-19
C[C@H]1Oc2cc(cnc2N)-c2c(nn(C)c2C#N)CN(C)C(=O)c2ccc(F)cc21
-18
CCc1nc(C(N)=O)c(Nc2ccc(N3CCC(N4CCN(C)CC4)CC3)c(OC)c2)nc1NC1CCOCC1
22
Cn1cnc2c(F)c(Nc3ccc(Br)cc3F)c(C(=O)NOCCO)cc21
-0.56
C[C@H](Nc1ncnc2nc[nH]c12)c1cc2cccc(Cl)c2c(=O)n1-c1ccccc1
-16
Cc1cc(Nc2ncnc3ccc(NC4=NC(C)(C)CO4)cc23)ccc1Oc1ccn2ncnc2c1
-15
COc1ccc(CN2C3CC2CN(c2ccc(-c4cc(OCC(C)(C)O)cn5ncc(C#N)c45)cn2)C3)cn1
-4.64
COC(=O)N[C@@H](C)CNc1nccc(-c2cn(C(C)C)nc2-c2cc(Cl)cc(NS(C)(=O)=O)c2F)n1
9.51
CCn1c(=O)c(-c2cc(NC(=O)Nc3ccccc3)c(F)cc2Br)cc2cnc(NC)cc21
-3.65

====

test system: 134 cancer cell lines; experiment: Cell viability assay (ATPlite, 72 hours), IC50 on cancer cell line panel; conditions: Homo sapiens, SW480, read-out: IC50 in cell proliferation assay, cell line SW480
readout label: IC50

COc1cc2ncnc(Nc3ccc(F)c(Cl)c3)c2cc1NC(=O)/C=C/CN1CCCCC1 [dacomitinib]
4830 nM
CCCS(=O)(=O)Nc1ccc(F)c(C(=O)c2c[nH]c3ncc(-c4ccc(Cl)cc4)cc23)c1F [vemurafenib]
> 31600 nM
Cc1cc(Nc2ncc(Cl)c(Nc3ccccc3S(=O)(=O)C(C)C)n2)c(OC(C)C)cc1C1CCNCC1 [ceritinib]
2440 nM
COC(=O)N[C@@H](C)CNc1nccc(-c2cn(C(C)C)nc2-c2cc(Cl)cc(NS(C)(=O)=O)c2F)n1 [encorafenib]
1220 nM
CC(=O)Nc1cccc(-n2c(=O)n(C3CC3)c(=O)c3c(Nc4ccc(I)cc4F)n(C)c(=O)c(C)c32)c1 [trametinib]
230 nM

====

biological target: panel of 255 wild-type kinases (Homo sapiens); assay: Kinase panel profiling at 1 µmol/L (MSA or IMAP), percentage inhibition; assay type: biochemical; conditions: kinase PHKG2; 1 µmol/L single concentration; read-out: %-inhibition at 1 µmol/L, PHKG2
# reported inhibition at 1 µM; entries follow
readout label: inhibition at 1 µM

C[C@H]1Oc2cc(cnc2N)-c2c(nn(C)c2C#N)CN(C)C(=O)c2ccc(F)cc21 [lorlatinib]
92%
CCN1CCN(c2ccc(Nc3cc(N(C)C(=O)Nc4c(Cl)c(OC)cc(OC)c4Cl)ncn3)cc2)CC1 [infigratinib]
1.64%
CCN1C(=O)N(c2c(F)c(OC)cc(OC)c2F)Cc2cnc3[nH]c(CN4CCOCC4)cc3c21 [pemigatinib]
8%
CN1CCN(c2ccc(C(=O)Nc3n[nH]c4ccc(Cc5cc(F)cc(F)c5)cc34)c(NC3CCOCC3)c2)CC1 [entrectinib]
41%
Cn1cc(-c2cc3c(N4CCN(c5ncc([C@@](C)(N)c6ccc(F)cc6)cn5)CC4)ncnn3c2)cn1 [avapritinib]
5.4%
O=C(Nc1cnn2ccc(N3CCC[C@@H]3c3cc(F)ccc3F)nc12)N1CC[C@H](O)C1 [larotrectinib]
5.63%
Cc1nc(NC(=O)N2CCC[C@H]2C(N)=O)sc1-c1ccnc(C(C)(C)C(F)(F)F)c1 [alpelisib]
1.64%

====

target: panel of 255 wild-type kinases (Homo sapiens); assay: Kinase panel profiling at 1 µmol/L (MSA or IMAP), percentage inhibition; format: biochemical; details: AMPKα2/β1/γ1 kinase assay; 1 µmol/L single concentration; read-out: %-inhibition AMPKα2/β1/γ1
readout label: inhibition at 1 µM

C[C@H]1Oc2cc(cnc2N)-c2c(nn(C)c2C#N)CN(C)C(=O)c2ccc(F)cc21
2.22%
C[C@H](Nc1ncnc2nc[nH]c12)c1cc2cccc(Cl)c2c(=O)n1-c1ccccc1
-0.155%
Cc1cc(Nc2ncnc3ccc(NC4=NC(C)(C)CO4)cc23)ccc1Oc1ccn2ncnc2c1
-1.44%
Cn1cnc2c(F)c(Nc3ccc(Br)cc3Cl)c(C(=O)NOCCO)cc21
1.9%
COc1cc2ncnc(Nc3ccc(F)c(Cl)c3)c2cc1NC(=O)/C=C/CN1CCCCC1
-3%
CN1CCN(c2ccc(C(=O)Nc3n[nH]c4ccc(Cc5cc(F)cc(F)c5)cc34)c(NC3CCOCC3)c2)CC1
79%
CCN1C(=O)N(c2c(F)c(OC)cc(OC)c2F)Cc2cnc3[nH]c(CN4CCOCC4)cc3c21
-5%
Cn1cc(-c2cc3c(N4CCN(c5ncc([C@@](C)(N)c6ccc(F)cc6)cn5)CC4)ncnn3c2)cn1
3%
Cc1nc(NC(=O)N2CCC[C@H]2C(N)=O)sc1-c1ccnc(C(C)(C)C(F)(F)F)c1
2.22%
O=C(Nc1cnn2ccc(N3CCC[C@@H]3c3cc(F)ccc3F)nc12)N1CC[C@H](O)C1
-6%
CO[C@]1(C(=O)N[C@@H](C)c2ccc(-n3cc(F)cn3)nc2)CC[C@H](c2nc(C)cc(Nc3cc(C)[nH]n3)n2)CC1
83%
FC(F)(F)c1ccc(CNc2ccc(Cc3c[nH]c4ncc(Cl)cc34)cn2)cn1
-7%
Cn1cnc2c(F)c(Nc3ccc(Br)cc3F)c(C(=O)NOCCO)cc21
-3.67%
COc1ccc(CN2C3CC2CN(c2ccc(-c4cc(OCC(C)(C)O)cn5ncc(C#N)c45)cn2)C3)cn1
28%
CCN1CCN(c2ccc(Nc3cc(N(C)C(=O)Nc4c(Cl)c(OC)cc(OC)c4Cl)ncn3)cc2)CC1
-2%
CCc1nc(C(N)=O)c(Nc2ccc(N3CCC(N4CCN(C)CC4)CC3)c(OC)c2)nc1NC1CCOCC1
21%

====

tested on: 134 cancer cell lines; experiment: Cell viability assay (ATPlite, 72 hours), IC50 on cancer cell line panel; settings: Homo sapiens, MV4-11, read-out: IC50 in cell proliferation assay, MV4-11 cell line (FLT3 ITD)
readout label: IC50 (nM)

CCCS(=O)(=O)Nc1ccc(F)c(C(=O)c2c[nH]c3ncc(-c4ccc(Cl)cc4)cc23)c1F
31200
CC(=O)Nc1cccc(-n2c(=O)n(C3CC3)c(=O)c3c(Nc4ccc(I)cc4F)n(C)c(=O)c(C)c32)c1
22
Cn1cnc2c(F)c(Nc3ccc(Br)cc3F)c(C(=O)NOCCO)cc21
511
FC(F)(F)c1ccc(CNc2ccc(Cc3c[nH]c4ncc(Cl)cc34)cn2)cn1
254

====

# reported pIC50; entries follow
test system: 134 cancer cell lines; test: Cell viability assay (ATPlite, 72 hours), IC50 on cancer cell line panel; settings: Homo sapiens, MIA PaCa-2, read-out: IC50 in cell proliferation assay
pIC50: −log10 of the molar value.
readout label: pIC50

CCn1c(=O)c(-c2cc(NC(=O)Nc3ccccc3)c(F)cc2Br)cc2cnc(NC)cc21
4.62
CCN1C(=O)N(c2c(F)c(OC)cc(OC)c2F)Cc2cnc3[nH]c(CN4CCOCC4)cc3c21
5.24
C[C@@H](Oc1cc(-c2cnn(C3CCNCC3)c2)cnc1N)c1c(Cl)ccc(F)c1Cl
5.79

====

molecular target: panel of 255 wild-type kinases (Homo sapiens); assay: Kinase panel profiling at 1 µmol/L (MSA or IMAP), percentage inhibition; type: biochemical; settings: ACK kinase assay; 1 µmol/L single concentration; read-out: %-inhibition ACK
readout label: inhibition at 1 µM (%)

Cc1cc(Nc2ncnc3ccc(NC4=NC(C)(C)CO4)cc23)ccc1Oc1ccn2ncnc2c1
9
Cn1cc(-c2cc3c(N4CCN(c5ncc([C@@](C)(N)c6ccc(F)cc6)cn5)CC4)ncnn3c2)cn1
73
COc1ccc(CN2C3CC2CN(c2ccc(-c4cc(OCC(C)(C)O)cn5ncc(C#N)c45)cn2)C3)cn1
4.48
COC(=O)N[C@@H](C)CNc1nccc(-c2cn(C(C)C)nc2-c2cc(Cl)cc(NS(C)(=O)=O)c2F)n1
-4.66
CO[C@]1(C(=O)N[C@@H](C)c2ccc(-n3cc(F)cn3)nc2)CC[C@H](c2nc(C)cc(Nc3cc(C)[nH]n3)n2)CC1
84
C[C@H](Nc1ncnc2nc[nH]c12)c1cc2cccc(Cl)c2c(=O)n1-c1ccccc1
2.28
Cc1nc(NC(=O)N2CCC[C@H]2C(N)=O)sc1-c1ccnc(C(C)(C)C(F)(F)F)c1
5.5
